Molecular target: Glutamate receptor ionotropic, NMDA 1 (Rattus norvegicus, UniProt P35439); also: assay procedure not described here
Exercise: state measured AC50 for each of the compounds provided.

• CC(=O)N[C@H]1[C@H]([C@H](O)[C@H](O)CO)OC(C(=O)O)=C[C@@H]1N=C(N)N = > 10 µM

# batch: return AC50 for each of the 7 compounds below
1. COC(=O)C1=C(C)NC(C)=C(C(=O)OC)C1c1ccccc1[N+](=O)[O-]
2. Oc1ncnc2[nH]ncc12
3. OCCN1CCN(CCCN2c3ccccc3C=Cc3ccccc32)CC1
4. O=C(O)c1cc(-c2ccc(F)cc2F)ccc1O
5. COc1ccc2cccc(CCNC(C)=O)c2c1
6. CN(C)C(=O)OC1N=C(c2ccccc2)c2cc(Cl)ccc2N(C)C1=O (centres undefined)
7. CN1CCCN=C1COC(=O)C(O)(c1ccccc1)C1CCCCC1 (centres undefined)

Response:
["> 10 µM", "> 10 µM", "> 30 µM", "> 10 µM", "> 10 µM", "> 10 µM", "> 10 µM"]

The reported Glutamate receptor ionotropic, NMDA 1 (Rattus norvegicus, UniProt P35439) AC50 of "C#C[C@]1(O)CC[C@H]2[C@@H]3CCC4=CCCC[C@@H]4[C@H]3CC[C@@]21C" is > 30 µM

---

Target: UniProt P28223
Sequence (P28223 whole entry): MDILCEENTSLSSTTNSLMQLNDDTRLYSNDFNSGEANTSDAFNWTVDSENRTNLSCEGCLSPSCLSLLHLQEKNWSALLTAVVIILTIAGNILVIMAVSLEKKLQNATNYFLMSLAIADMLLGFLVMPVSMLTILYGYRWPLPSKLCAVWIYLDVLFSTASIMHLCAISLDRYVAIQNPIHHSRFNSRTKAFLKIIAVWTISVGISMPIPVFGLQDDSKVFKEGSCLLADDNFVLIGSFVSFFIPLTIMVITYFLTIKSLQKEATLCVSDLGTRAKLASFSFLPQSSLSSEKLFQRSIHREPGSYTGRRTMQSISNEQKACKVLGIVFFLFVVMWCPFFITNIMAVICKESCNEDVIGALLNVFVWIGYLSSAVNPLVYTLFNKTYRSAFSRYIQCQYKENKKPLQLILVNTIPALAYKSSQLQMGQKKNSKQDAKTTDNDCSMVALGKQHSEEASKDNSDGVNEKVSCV
Format: functional, cell-based
Exercise: state measured AC50 for each of the compounds provided.

Below: 3 compounds and their reported AC50.
- CC(C)NCC1CCc2cc(CO)c([N+](=O)[O-])cc2N1 (configuration not stated): > 30 µM
- NS(=O)(=O)c1cc2c(cc1Cl)NC(CC1CCCC1)NS2(=O)=O (configuration not stated) [CYCLOPENTHIAZIDE]: > 30 µM
- CC1=CC(=O)c2ccccc2C1=O: > 10 µM

# batch: return AC50 for each of the 4 compounds below
1. CC(C(=O)O)c1ccc(N2CC=CC2)c(Cl)c1 (configuration not stated)
2. CC(C)NCC(O)COc1ccc(COCCOC(C)C)cc1 (configuration not stated)
3. COc1ccc(C(=O)N2CCN(c3ccc4c(c3)CCC(=O)N4)CC2)cc1OC
4. CCC1(C2=CCCCCC2)C(=O)NC(=O)NC1=O

Response:
1: > 30 µM; 2: > 30 µM; 3: > 30 µM; 4: > 10 µM

---

AC50, Delta-type opioid receptor (Homo sapiens, UniProt P41143), per-entry values.

* C#CCN[C@@H]1CCc2ccccc21 | > 30 µM

# batch: return AC50 for each of the 7 molecules below
1. COC(=O)N[C@H](C(=O)N1CCC[C@H]1c1nc(-c2ccc(-c3ccc(-c4c[nH]c([C@@H]5CCCN5C(=O)[C@@H](NC(=O)OC)C(C)C)n4)cc3)cc2)c[nH]1)C(C)C
2. O=C(Cn1ccnc1[N+](=O)[O-])NCc1ccccc1
3. Cc1ccc(C(=O)c2cc(O)c(O)c([N+](=O)[O-])c2)cc1
4. C1COC(NC(C2CC2)C2CC2)=N1
5. O=C(OCCN1CCOCC1)c1cccnc1Nc1cccc(C(F)(F)F)c1 [MORNIFLUMATE]
6. Cc1cc(-c2ccccc2)nnc1NCCN1CCOCC1
7. CN1CC(=O)N2[C@H](c3ccc4c(c3)OCO4)c3[nH]c4ccccc4c3C[C@@H]2C1=O

Response:
> 30 µM
> 30 µM
> 30 µM
> 30 µM
> 30 µM
> 30 µM
> 30 µM

Documented AC50 of "CCCCOc1cc(C(=O)NCCN(CC)CC)c2ccccc2n1" : > 30 µM

---

Molecular target: Voltage-dependent L-type calcium channel subunit alpha-1C (Rattus norvegicus); also: assay procedure not described here
Type: functional
property label: AC50

Below: 5 molecules and their reported AC50.
• CC(N)Cc1ccccc1 (stereo unspecified) [AMPHETAMINE] = > 10 µM
• CCC(=O)OCC(=O)[C@@]1(OC(=O)CC)[C@H](C)C[C@H]2[C@H]3[C@H]([C@@H](O)C[C@@]21C)[C@@]1(C)C=CC(=O)C=C1C[C@H]3Cl [ALCLOMETASONE DIPROPIONATE] = > 30 µM
• COc1c(N2CCNC(C)C2)c(F)cc2c(=O)c(C(=O)O)cn(C3CC3)c12 (stereo unspecified) [GATIFLOXACIN] = > 10 µM
• C#CC1(OC(N)=O)CCCCC1 [ETHINAMATE] = > 10 µM
• CCCCN1CCCCC1C(=O)Nc1c(C)cccc1C (stereo unspecified) [BUPIVACAINE] = > 30 µM

# batch: return AC50 for each of the 5 molecules below
1. O=C(O)Cc1cn(-c2ccccc2)nc1-c1ccc(Cl)cc1 [LONAZOLAC]
2. COC(=O)[C@H]1[C@@H](OC(=O)c2ccccc2)C[C@@H]2CC[C@H]1N2C [COCAINE]
3. COc1ccccc1OCC(O)COC(N)=O (stereo unspecified) [METHOCARBAMOL]
4. COc1ccc2c(c1)c(CC(=O)OCC(=O)O)c(C)n2C(=O)c1ccc(Cl)cc1 [ACEMETACIN]
5. CCN(CC)CCNC(=O)c1cc(Cl)c(N)cc1OC [METOCLOPRAMIDE]

Response:
1: > 30 µM; 2: > 30 µM; 3: > 10 µM; 4: > 30 µM; 5: > 10 µM

---

Molecular target: UniProtKB P21397
Sequence (P21397 whole entry): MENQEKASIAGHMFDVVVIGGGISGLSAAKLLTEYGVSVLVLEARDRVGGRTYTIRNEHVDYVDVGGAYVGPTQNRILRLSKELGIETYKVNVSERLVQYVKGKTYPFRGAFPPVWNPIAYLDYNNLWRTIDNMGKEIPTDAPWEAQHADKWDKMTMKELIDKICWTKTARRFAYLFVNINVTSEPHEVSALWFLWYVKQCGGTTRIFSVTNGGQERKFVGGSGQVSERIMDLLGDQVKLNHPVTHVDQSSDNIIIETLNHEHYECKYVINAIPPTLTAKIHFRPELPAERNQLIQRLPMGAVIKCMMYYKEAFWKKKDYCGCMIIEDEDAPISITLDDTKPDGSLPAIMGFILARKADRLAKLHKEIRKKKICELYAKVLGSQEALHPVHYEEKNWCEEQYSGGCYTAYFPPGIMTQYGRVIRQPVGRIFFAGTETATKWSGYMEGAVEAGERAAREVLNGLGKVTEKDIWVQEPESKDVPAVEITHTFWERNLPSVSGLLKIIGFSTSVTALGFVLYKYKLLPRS
Format: functional
property label: AC50

Below: 4 molecules and their reported AC50.
- CCCCCCCCOc1ccccc1C(=O)Nc1ccc(C(=O)OCC[N+](C)(CC)CC)cc1 [OTILONIUM BROMIDE]: > 30 µM
- CC(C)C(=O)OCC(=O)[C@@]12O[C@H](C3CCCCC3)O[C@@H]1C[C@H]1[C@@H]3CCC4=CC(=O)C=C[C@]4(C)[C@H]3[C@@H](O)C[C@@]12C [CICLESONIDE]: > 10 µM
- CCCCOc1cc(C(=O)NCCN(CC)CC)c2ccccc2n1 [DIBUCAINE]: > 10 µM
- Cc1cccc(C)c1OCC(C)N (stereo not given) [MEXILETINE]: 18 µM

# batch: return AC50 for each of the 6 molecules below
1. CN(C/C=C/c1ccccc1)Cc1cccc2ccccc12 [NAFTIFINE]
2. CN(C)CCCN1c2ccccc2Sc2ccccc21 [PROMAZINE]
3. Cc1cc(-c2ccccc2)nnc1NCCN1CCOCC1 [MINAPRINE]
4. NC[C@H]1CC[C@H](C(=O)O)CC1 [TRANEXAMIC ACID]
5. CC(Cc1ccccc1)NCCC(c1ccccc1)c1ccccc1 (stereo not given) [PRENYLAMINE]
6. C#CC1(OC(N)=O)CCCCC1 [ETHINAMATE]

Response:
> 10 µM
> 10 µM
> 10 µM
> 10 µM
> 10 µM
> 10 µM

---

Target: Voltage-dependent L-type calcium channel subunit alpha-1C (Rattus norvegicus, UniProt P22002); also: assay procedure not described here
Sequence (P22002 whole entry): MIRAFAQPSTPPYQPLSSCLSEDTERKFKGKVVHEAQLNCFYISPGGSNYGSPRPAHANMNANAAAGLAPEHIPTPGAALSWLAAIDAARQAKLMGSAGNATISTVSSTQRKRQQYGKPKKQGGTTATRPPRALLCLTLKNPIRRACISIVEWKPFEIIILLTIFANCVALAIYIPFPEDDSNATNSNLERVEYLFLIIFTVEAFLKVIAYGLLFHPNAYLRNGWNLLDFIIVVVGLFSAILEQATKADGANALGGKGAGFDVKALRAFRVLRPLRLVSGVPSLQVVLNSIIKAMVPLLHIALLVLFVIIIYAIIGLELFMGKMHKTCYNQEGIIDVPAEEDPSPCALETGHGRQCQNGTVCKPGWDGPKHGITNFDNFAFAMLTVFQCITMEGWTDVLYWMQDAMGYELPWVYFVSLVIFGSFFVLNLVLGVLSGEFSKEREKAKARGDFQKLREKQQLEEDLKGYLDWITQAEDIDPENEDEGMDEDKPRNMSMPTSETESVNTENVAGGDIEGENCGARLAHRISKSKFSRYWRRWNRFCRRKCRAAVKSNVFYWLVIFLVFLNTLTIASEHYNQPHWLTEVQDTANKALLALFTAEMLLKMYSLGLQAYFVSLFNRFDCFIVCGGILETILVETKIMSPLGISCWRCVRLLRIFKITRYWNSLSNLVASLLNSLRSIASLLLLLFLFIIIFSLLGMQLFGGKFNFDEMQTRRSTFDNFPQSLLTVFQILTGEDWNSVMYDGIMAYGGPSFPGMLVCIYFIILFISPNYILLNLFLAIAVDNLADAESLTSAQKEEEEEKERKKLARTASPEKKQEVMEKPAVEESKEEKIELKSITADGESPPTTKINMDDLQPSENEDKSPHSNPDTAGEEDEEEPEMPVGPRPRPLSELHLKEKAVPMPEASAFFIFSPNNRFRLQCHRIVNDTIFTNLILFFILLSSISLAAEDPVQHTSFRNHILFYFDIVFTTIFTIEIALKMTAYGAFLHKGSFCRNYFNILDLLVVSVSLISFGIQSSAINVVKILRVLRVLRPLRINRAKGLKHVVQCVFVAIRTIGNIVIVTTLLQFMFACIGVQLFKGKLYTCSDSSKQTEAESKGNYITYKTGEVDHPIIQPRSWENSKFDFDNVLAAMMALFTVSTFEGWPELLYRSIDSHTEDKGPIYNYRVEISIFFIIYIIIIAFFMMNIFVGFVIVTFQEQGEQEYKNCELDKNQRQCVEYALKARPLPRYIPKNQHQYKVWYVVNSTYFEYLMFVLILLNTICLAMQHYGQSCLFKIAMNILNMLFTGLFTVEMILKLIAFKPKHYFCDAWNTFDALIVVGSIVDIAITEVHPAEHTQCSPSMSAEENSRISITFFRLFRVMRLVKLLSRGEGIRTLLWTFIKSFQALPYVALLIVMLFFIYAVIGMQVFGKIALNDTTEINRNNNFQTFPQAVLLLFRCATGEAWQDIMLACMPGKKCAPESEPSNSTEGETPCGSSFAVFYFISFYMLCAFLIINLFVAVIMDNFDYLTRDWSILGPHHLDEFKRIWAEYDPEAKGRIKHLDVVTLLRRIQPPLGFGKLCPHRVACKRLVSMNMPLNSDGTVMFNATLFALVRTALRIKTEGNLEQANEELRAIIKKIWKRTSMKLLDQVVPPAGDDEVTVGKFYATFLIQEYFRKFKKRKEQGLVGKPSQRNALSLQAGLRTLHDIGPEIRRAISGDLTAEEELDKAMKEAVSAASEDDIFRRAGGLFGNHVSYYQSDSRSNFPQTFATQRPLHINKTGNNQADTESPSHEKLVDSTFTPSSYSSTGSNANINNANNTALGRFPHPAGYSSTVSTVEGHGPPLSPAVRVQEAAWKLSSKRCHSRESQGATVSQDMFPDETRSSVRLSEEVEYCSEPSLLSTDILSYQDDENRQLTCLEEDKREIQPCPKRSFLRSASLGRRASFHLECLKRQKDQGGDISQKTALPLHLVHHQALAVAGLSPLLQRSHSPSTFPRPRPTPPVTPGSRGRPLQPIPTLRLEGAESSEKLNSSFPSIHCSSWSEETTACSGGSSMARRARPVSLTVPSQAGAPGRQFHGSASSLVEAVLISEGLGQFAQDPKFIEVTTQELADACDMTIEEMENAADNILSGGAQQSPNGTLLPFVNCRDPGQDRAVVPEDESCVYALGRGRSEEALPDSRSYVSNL
Format: functional
property label: AC50

Below: 7 compounds and their reported AC50.
* C[C@@H]1O[C@@H]1P(=O)(O)O | > 10 µM
* C[C@H]1O[C@H](O[C@H]2[C@H](O)[C@@H](O)[C@@H](O[C@H]3[C@H](O)[C@@H](O)C(O)O[C@@H]3CO)O[C@@H]2CO)[C@H](O)[C@@H](O)[C@@H]1N[C@H]1C=C(CO)[C@@H](O)[C@H](O)[C@H]1O (stereo partly drawn) | > 10 µM
* N[C@@H](CSCC(=O)O)C(=O)O | > 30 µM
* CN(C)C(=O)OC1N=C(c2ccccc2)c2cc(Cl)ccc2N(C)C1=O (stereo not drawn) | > 10 µM
* CN1C(=O)CC(C)(c2ccccc2)C1=O (stereo not drawn) [METHSUXIMIDE] | > 10 µM
* CC(C)[N+](C)(CCC(C(N)=O)(c1ccccc1)c1ccccc1)C(C)C [ISOPROPAMIDE] | > 10 µM
* COC(=O)C1=C(C)NC(C)=C(C(=O)OCC(C)C)C1c1ccccc1[N+](=O)[O-] (stereo not drawn) | 4.62 µM

Proceed to the following item.
Documented AC50 of "CN1CCc2cccc3c2[C@H]1Cc1ccc(O)c(O)c1-3" : > 10 µM

---

AC50, Sodium-dependent dopamine transporter (Homo sapiens, UniProt Q01959), per-entry values.

* CC(=O)NS(=O)(=O)c1ccc(N)cc1 [SULFACETAMIDE] | > 10 µM
* CS(=O)(=O)c1ccc([C@@H](O)[C@@H](CO)NC(=O)C(Cl)Cl)cc1 [THIAMPHENICOL] | > 30 µM
* COc1cc(Nc2c(C#N)cnc3cc(OCCCN4CCN(C)CC4)c(OC)cc23)c(Cl)cc1Cl [BOSUTINIB] | 8.75 µM
* O=C(C[S+]([O-])C(c1ccccc1)c1ccccc1)NO (centres undefined) | 9.4 µM
* C#CCN[C@@H]1CCc2ccccc21 [RASAGILINE] | > 30 µM
* Cc1cc(-c2ccccc2)nnc1NCCN1CCOCC1 [MINAPRINE] | > 10 µM
* COC(=O)N[C@H](C(=O)N[C@@H](Cc1ccccc1)[C@@H](O)CN(Cc1ccc(-c2ccccn2)cc1)NC(=O)[C@@H](NC(=O)OC)C(C)(C)C)C(C)(C)C [ATAZANAVIR] | > 30 µM
* COc1cc2c(cc1OC)C(=O)C(CC1CCN(Cc3ccccc3)CC1)C2 (centres undefined) [DONEPEZIL] | > 30 µM

Proceed to the following item.
The reported Sodium-dependent dopamine transporter (Homo sapiens, UniProt Q01959) AC50 of CC(C)NCC1CCc2cc(CO)c([N+](=O)[O-])cc2N1 (centres undefined) [OXAMNIQUINE] is > 30 µM

Cited source: ChEMBL document CHEMBL5291721
